All figures here come from ChEMBL document CHEMBL1909046.

# protocolSummary: DRUGMATRIX: Leukotriene, BLT (LTB4) radioligand binding (ligand: [3H]LTB4)
# Format: cell membranes, Membrane
# conditionInfo: u-937; Not Active = under 50% inhibition at 10 µM
experimentalReadout: Ki

LEAD (II) ACETATE
Not Active
LIPOPOLYSACCHARIDE E. COLI O55:B5
Not Active
SODIUM NITROPRUSSIDE
Not Active
CADMIUM ACETATE
Not Active

====

# assayTarget: Alpha-1B adrenergic receptor (Rattus norvegicus)
# Sequence (P15823 whole entry): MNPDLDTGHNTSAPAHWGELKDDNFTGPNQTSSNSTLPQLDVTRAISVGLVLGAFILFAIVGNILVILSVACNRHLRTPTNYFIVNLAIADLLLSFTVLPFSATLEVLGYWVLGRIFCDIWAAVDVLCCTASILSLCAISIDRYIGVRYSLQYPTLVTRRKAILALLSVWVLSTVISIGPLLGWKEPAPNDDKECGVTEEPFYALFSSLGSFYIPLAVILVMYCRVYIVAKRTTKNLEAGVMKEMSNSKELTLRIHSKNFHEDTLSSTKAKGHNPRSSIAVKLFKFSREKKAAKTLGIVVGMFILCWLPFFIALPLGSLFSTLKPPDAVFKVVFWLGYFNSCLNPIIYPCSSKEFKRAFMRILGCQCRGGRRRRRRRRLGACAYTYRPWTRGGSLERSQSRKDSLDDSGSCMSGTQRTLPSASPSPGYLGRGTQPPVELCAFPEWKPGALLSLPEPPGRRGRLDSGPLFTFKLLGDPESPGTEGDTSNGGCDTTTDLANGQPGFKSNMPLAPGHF
# protocolSummary: DRUGMATRIX: Alpha-1B adrenergic receptor radioligand binding (ligand: prazosin)
# Type: cell membranes, Wistar, Liver, Membrane
# conditionInfo: Not Active = under 50% inhibition at 10 µM; read-out: Ki
Reported pKi values for a set of compounds
pKi here: minus log base 10 of the concentration, concentration in moles per litre.

CCCN1C[C@H](CSC)C[C@@H]2c3cccc4[nH]cc(c34)C[C@H]21 [PERGOLIDE]
5.84
O=C(CCCN1CC=C(n2c(=O)[nH]c3ccccc32)CC1)c1ccc(F)cc1
8.01
CC(C)[C@@]1(NC(=O)[C@@H]2C[C@@H]3c4cccc5[nH]cc(c45)C[C@H]3N(C)C2)O[C@@]2(O)[C@@H]3CCCN3C(=O)[C@H](Cc3ccccc3)N2C1=O.CS(=O)(=O)O [DIHYDROERGOCRISTINE MESYLATE]
8.90
CC(C)[C@H]1C(=O)N2CCC[C@H]2[C@]2(O)O[C@](NC(=O)[C@@H]3C=C4c5cccc6[nH]cc(c56)C[C@H]4N(C)C3)(C(C)C)C(=O)N12
8.54
COc1cc2nc(N3CCN(C(=O)C4COc5ccccc5O4)CC3)nc(N)c2cc1OC (stereo unspecified)
9.38

Now examine the next entry.
Ask: State, for Alpha-1B adrenergic receptor (Rattus norvegicus), measured pKi of the compound listed here: `CN(C)CCCN1c2ccccc2Sc2ccccc21`
Result: 8.34

====

# protocolSummary: DRUGMATRIX: Leukotriene, BLT (LTB4) radioligand binding (ligand: [3H]LTB4)
# Format: cell membranes, Membrane
# conditionInfo: u-937; Not Active = under 50% inhibition at 10 µM
experimentalReadout: Ki

Some molecules with recorded Ki:
CN(C)C(=O)Oc1cc(OC(=O)N(C)C)cc(C(O)CNC(C)(C)C)c1 (stereo not given)
Not Active
N#CC(C#N)=Cc1ccc(O)c(O)c1
Not Active
COc1c(C)c2c(c(O)c1C/C=C(\C)CCC(=O)O)C(=O)OC2
Not Active
CCn1cc(C(=O)O)c(=O)c2cc(F)c(N3CCNCC3)cc21
Not Active

Ask: Supply measured Ki of `Nc1nc2c(ncn2COCCO)c(=O)[nH]1` in your reply.
Result: Not Active

====

# assayTarget: Alpha-2C adrenergic receptor (Homo sapiens, UniProt P18825)
# Sequence (P18825 whole entry): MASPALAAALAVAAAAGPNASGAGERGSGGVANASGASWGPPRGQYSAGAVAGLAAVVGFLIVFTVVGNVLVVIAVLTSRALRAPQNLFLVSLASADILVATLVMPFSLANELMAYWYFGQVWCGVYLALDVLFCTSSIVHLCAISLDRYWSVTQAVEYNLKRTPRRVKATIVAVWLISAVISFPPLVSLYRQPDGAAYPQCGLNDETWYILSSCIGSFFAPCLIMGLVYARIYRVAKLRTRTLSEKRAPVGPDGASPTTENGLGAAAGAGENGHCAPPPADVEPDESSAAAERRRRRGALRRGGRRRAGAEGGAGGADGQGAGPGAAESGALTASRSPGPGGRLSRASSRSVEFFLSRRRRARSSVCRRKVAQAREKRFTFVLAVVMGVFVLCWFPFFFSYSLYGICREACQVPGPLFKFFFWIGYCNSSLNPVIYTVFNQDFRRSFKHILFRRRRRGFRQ
# protocolSummary: DRUGMATRIX: Adrenergic Alpha-2C radioligand binding (ligand: [3H] MK-912)
# Assay type: cell membranes, Sf9, Membrane
# conditionInfo: read-out: Ki
pKi: −log10 of the molar value.
Tag: Satisfied if measured pKi is not below 7, Not satisfied if it is.

Ask: Threshold query (pKi >= 7) on CC(C)[C@@]1(NC(=O)[C@@H]2C[C@@H]3c4cccc5[nH]cc(c45)C[C@H]3N(C)C2)O[C@@]2(O)[C@@H]3CCCN3C(=O)[C@H](Cc3ccccc3)N2C1=O.CS(=O)(=O)O [DIHYDROERGOCRISTINE MESYLATE]
Result: Satisfied
